- Tested on: Caco-2
- assayName: cell viability relative to DMSO; higher = less toxic
- measurementSetup: 72 h; 10000 nM
observable: cell viability (%)
Use % as the unit, but write only the number.

These solved cases illustrate the format of a correct answer.
>>> value("C[C@]12CC[C@H](O)CC1=CC[C@@H]1[C@@H]2CC[C@]2(C)C(n3cnc4ccccc43)=CC[C@@H]12 [galeterone]")
45.9
>>> value("CC(C)(F)C[C@H](N[C@@H](c1ccc(-c2ccc(S(C)(=O)=O)cc2)cc1)C(F)(F)F)C(=O)NC1(C#N)CC1 [odanacatib]")
90.4
>>> value("COc1cc(COc2cc(N)c(Cl)cc2C(=O)CCC2CCN(CCNS(C)(=O)=O)CC2)cc(OC)c1")
88.3
>>> value("COC(=O)Nc1nc2cc(C(=O)c3ccccc3)ccc2[nH]1 [mebendazole]")
55.6
>>> value("Cc1cc(C)n(-c2cccc([C@H](CC(=O)O)CN3CC[C@@H](CCc4ccc5c(n4)NCCC5)C3)c2)n1 [integrin-antagonist-1]")
105
>>> value("CN(CCOP(=O)(O)O)C(=N)N [creatinol-phosphate]")
90.7
>>> value("CC(C)CCC[C@@H](C)[C@H]1CC[C@H]2[C@@H]3CCC4=CC(=NO)CC[C@]4(C)[C@H]3CC[C@]12C [olesoxime]")
99.1

Alright, here's another compound for you.
Memo: COc1cc2c(=O)c(-c3ccc(O)cc3)coc2cc1O [glycitein] , reported cell viability: 94.2

* * *

- Test system: A549-ACE2 infected with SARS-CoV-2
- assayName: SARS-CoV-2 infection rate relative to DMSO; higher = more infection
- measurementSetup: 3 µM; 24 h
The molecules listed here are annotated with their SARS-CoV-2 infection rate.
Use % as the unit, but write only the number.

These solved cases illustrate the format of a correct answer.
>>> value("Oc1cc(CNC(=S)/C=C/c2cc(O)c(O)c(Br)c2)cc(O)c1O")
101
>>> value("CC(=O)c1cc([N+](=O)[O-])c(Sc2ccc(F)cc2F)s1")
106
>>> value("CC(C)c1ccc(C(=O)c2cccs2)c(SCCCCCCCCN(C)C)n1")
23

Memo: COc1cc(COc2cc(N)c(Cl)cc2C(=O)CCC2CCN(CCNS(C)(=O)=O)CC2)cc(OC)c1 , reported SARS-CoV-2 infection rate: 69

* * *

- System: U2OS
- assayName: cell viability relative to DMSO; higher = less toxic
- measurementSetup: 72 h; 1000 nM
The compounds listed here are annotated with their cell viability.
Use % as the unit, but write only the number.

These solved cases illustrate the format of a correct answer.
>>> value("C[C@]12CCC(=O)C=C1CC[C@@H]1[C@@H]2CC[C@@]2(C)[C@H]1CC[C@]2(C)O")
101
>>> value("C[C@H]1COC2=C1C(=O)C(=O)c1c2ccc2c1CCCC2(C)C")
101
>>> value("Oc1cc(CNC(=S)/C=C/c2cc(O)c(O)c(Br)c2)cc(O)c1O")
64.9
>>> value("O=C(O)CC1CC(c2ccccc2)=NO1 (stereo not drawn)")
103
>>> value("C[C@@H]([C@@H](O)c1ccc(O)cc1)N1CCC(O)(c2ccccc2)CC1")
110
>>> value("O=C1c2ccc(Nc3ccc(F)cc3F)cc2CCc2ccc(OC[C@H](O)CO)cc21 [skepinone-L]")
90.2

Memo: CO/N=C1\C[C@]2(C[C@@H]3C[C@@H](C/C=C(\C)C[C@@H](C)/C=C/C=C4\CO[C@@H]5[C@H](O)C(C)=C[C@@H](C(=O)O3)[C@]45O)O2)O[C@H](/C(C)=C/C(C)C)[C@H]1C , reported cell viability: 94.6

Memo: CC(CN(C)C)CN1c2ccccc2CCc2ccccc21 (stereo not drawn) , reported cell viability: 98.1

Memo: C=CCc1ccc(O)c(-c2cc(CC=C)ccc2O)c1 , reported cell viability: 102

Memo: N=C(N)NCCN1CCCCCCC1 , reported cell viability: 98.8

Memo: CCCn1c(=O)c2nc(C34CC5CC(CC3C5)C4)[nH]c2n(CCC)c1=O , reported cell viability: 99.5

* * *

- Test system: U2OS
- assayName: drug sensitivity score (DSS) for viability; higher = more toxic; extreme values may be limits of the assay
- measurementSetup: 72 h
The molecules listed here are annotated with their drug sensitivity score.

These solved cases illustrate the format of a correct answer.
>>> value("COC(=O)N[C@@H](C)CNc1nccc(-c2cn(C(C)C)nc2-c2cc(Cl)cc(NS(C)(=O)=O)c2F)n1 [Encorafenib (LGX818)]")
1.1
>>> value("CO/N=C1\\C[C@]2(C[C@@H]3C[C@@H](C/C=C(\\C)C[C@@H](C)/C=C/C=C4\\CO[C@@H]5[C@H](O)C(C)=C[C@@H](C(=O)O3)[C@]45O)O2)O[C@H](/C(C)=C/C(C)C)[C@H]1C [moxidectin]")
0
>>> value("CN(C)[C@@H]1CCc2[nH]c3ccc(NC(=O)c4ccc(F)cc4)cc3c2C1")
0

Memo: CC(C)C[C@@H](NC(=O)[C@H](C)NC(=O)CNC(=O)[C@@H](NC=O)C(C)C)C(=O)N[C@@H](C)C(=O)N[C@@H](C(=O)N[C@H](C(=O)N[C@@H](C(=O)N[C@@H](Cc1c[nH]c2ccccc12)C(=O)N[C@H](CC(C)C)C(=O)N[C@@H](Cc1c[nH]c2ccccc12)C(=O)N[C@H](CC(C)C)C(=O)N[C@@H](Cc1c[nH]c2ccccc12)C(=O)N[C@H](CC(C)C)C(=O)N[C@@H](Cc1c[nH]c2ccccc12)C(=O)NCCO)C(C)C)C(C)C)C(C)C [gramicidin] , reported drug sensitivity score: 12.3

* * *

- Tested on: Caco-2
- assayName: cell viability relative to DMSO; higher = less toxic
- measurementSetup: 72 h; 10 nM
The compounds listed here are annotated with their cell viability.
Use % as the unit, but write only the number.

Memo: COc1cccc(-c2cc(F)ccc2[C@H]2Cc3nc(N)nc(C)c3C(=O)N2)n1 , reported cell viability: 67.8

* * *

The compounds listed here are annotated with their cell viability.
- System: HepG2
- assayName: cell viability relative to DMSO; higher = less toxic
- measurementSetup: 72 h; 100 nM
Use % as the unit, but write only the number.

>>> value("CNC(=O)[C@H](Cc1ccccc1)NC(=O)[C@H](CC(C)C)[C@H](CSc1cccs1)C(=O)NO")
99
>>> value("N=C(N)NCCN1CCCCCCC1")
96.4

Memo: CC(=O)O[C@]1(C(C)=O)CC[C@H]2[C@@H]3CCC4=CC(=O)CCC4=C3[C@@H](c3ccc(N(C)C)cc3)C[C@@]21C [Ulipristal acetate] , reported cell viability: 103

Memo: Cc1ccc(-c2nn(C(C)(C)CNC(=O)c3ncccc3C)c3ncnc(N)c23)cc1 , reported cell viability: 99.7

Memo: COc1ccc([C@]2(C#N)CC[C@@H](C(=O)O)CC2)cc1OC1CCCC1 , reported cell viability: 98.3

Memo: CC(NC(C)(C)C)C(=O)c1cccc(Cl)c1 (configuration not stated) , reported cell viability: 103

Memo: CC(C)OC(=O)N1CCC(Oc2ncnc3c2cnn3-c2ccc(S(C)(=O)=O)cc2F)CC1 , reported cell viability: 96.2

Memo: COC(=O)CCc1ccc(OCC(O)CNC(C)C)cc1 (configuration not stated) , reported cell viability: 94.5

Memo: Cc1ccc(CNc2ncnc3ccc(-c4ccc(CO)o4)cc23)o1 , reported cell viability: 99.2

Memo: CC1(C)O[C@@H]2[C@@H](CO[C@@]3(COS(N)(=O)=O)OC(C)(C)O[C@@H]23)O1 [topiramate] , reported cell viability: 91.8

Memo: CC(C)C[C@@H](N)C1(c2ccc(Cl)cc2)CCC1 , reported cell viability: 110

Memo: O=C(Cc1ccc(-c2ccc(OCCN3CCOCC3)cc2)cn1)NCc1ccccc1 , reported cell viability: 80.8

Memo: CO/N=C1\C[C@]2(C[C@@H]3C[C@@H](C/C=C(\C)C[C@@H](C)/C=C/C=C4\CO[C@@H]5[C@H](O)C(C)=C[C@@H](C(=O)O3)[C@]45O)O2)O[C@H](/C(C)=C/C(C)C)[C@H]1C , reported cell viability: 102

Memo: CN(CCOP(=O)(O)O)C(=N)N [creatinol-phosphate] , reported cell viability: 101

Memo: O=[N+]([O-])O[C@@H]1CO[C@H]2[C@@H]1OC[C@@H]2O [isosorbide-mononitrate] , reported cell viability: 91.2

Memo: O=C(/C=C/c1ccccc1)NC(NC(=S)Nc1cccc2cccnc12)C(Cl)(Cl)Cl (configuration not stated) , reported cell viability: 99.1

Memo: CCC(=O)O[C@]1(C(=O)CO)CC[C@H]2[C@@H]3CCC4=CC(=O)CC[C@]4(C)[C@H]3CC[C@@]21C , reported cell viability: 90.8

* * *

- Tested on: Vero E6
- assayName: cell viability relative to DMSO; higher = less toxic
- measurementSetup: 72 h; 10 nM
The compounds listed here are annotated with their cell viability.

These solved cases illustrate the format of a correct answer.
>>> value("CCC(=O)O[C@]1(C(=O)CCl)[C@@H](C)C[C@H]2[C@@H]3CCC4=CC(=O)C=C[C@]4(C)[C@@]3(F)[C@@H](O)C[C@@]21C [clobetasol-propionate]")
"96.5%"
>>> value("CC(=O)O[C@]1(C(C)=O)CC[C@H]2[C@@H]3CCC4=CC(=O)CCC4=C3[C@@H](c3ccc(N(C)C)cc3)C[C@@]21C [Ulipristal acetate]")
"98.2%"
>>> value("CC(=O)Nc1c(I)cc(I)c(C(=O)O)c1I")
"99%"

Alright, here's another compound for you.
Result for C[C@H](Cc1ccc(OCC(=O)O)cc1)NC[C@H](O)c1cccc(Cl)c1 , tested on Vero E6, cell viability: 95.9%
